The reported numbers originate from patent US20100248224A1.

- Tested on: HL-60 cells
- protocol: ELISA detection of DNA fragmentation in HL-60 cell lysates (Cell Death Detection ELISA kit)
- Format: cell-based, human
- conditions: Homo sapiens; HL-60 cells 0.3 million cells/ml, treated 20 hours, FIG. 5; read-out: EC50 value, DNA fragmentation determined by ELISA
recorded metric: EC50 (µM)

> print(dat)
                              record.smiles  test.system  recorded.metric  observed.value
1  CC[C@@]1(O)C(=O)OCc2c1cc1n(c2=O)Cc2cc3ccccc3nc2-1  HL-60 cells             EC50            1.11

###

- System: HL-60 cells
- protocol: PicoGreen detection of DNA fragmentation in HL-60 cell lysates
- Format: cell-based, human
- conditions: Homo sapiens; HL-60 cells 0.3 million cells/ml, treated 20 hours, FIG. 3; read-out: EC50 value, DNA fragmentation detected with PicoGreen
pEC50: −log10 of the molar value.
recorded metric: pEC50

> print(dat)
                              record.smiles  observed.value
1  CC[C@@]1(O)C(=O)OCc2c1cc1n(c2=O)Cc2cc3ccccc3nc2-1            5.83
